Tested on: abdominal cramps induced in the rat by acetic acid
MEASUREMENT_DESCRIPTION: Cramps induced with acetic acid (KOSTER test), analgesic activity, per os
Type: in vivo, rat (male Wistar)
TEST_CONTEXT: po; rat, 50 mg/kg per os, 30 minutes before acetic acid, 25 minutes count; read-out: Acetic Acid Writhing, % inhibition (% decrease in the number of cramps compared with the control animals)
RECORDED_METRIC: inhibition at 50 mg/kg (%)

* Cn1c(=O)oc2cc(C(=O)CN3CCN(c4ccccc4)CC3)cnc21 | 97
* Cn1c(=O)oc2cc(C(O)CN3CCN(c4ccccc4)CC3)cnc21 (stereo not drawn) | 86
* CC(=O)c1cnc2c(c1)CC(=O)N2C | 96
* O=C(c1ccccc1)c1cnc2[nH]c(=O)oc2c1 [Example 6, 6-BENZOYLOXAZOLO[4,5-b]PYRIDIN-2(3H)-ONE] | 88
* Cn1c(=O)oc2cc(CN3CCN(c4ccccc4)CC3)cnc21 | 98
* Cn1c(=O)oc2cc(C(=O)c3ccccc3)cnc21 | 85
